# Tested on: KM12 colon
# Protocol summary: NCI tumour cell line growth inhibition, 48 h
Readout: TGI

Worked cases, TGI given:
- Compound: "CC(C)(C)c1ccc2c(c1)S(=O)(=O)Nc1ccc(Cl)cc1NS(=O)(=O)c1cc(C(C)(C)C)ccc1OCCOCCOCCO2"
  TGI: "> 100 µM"
- Compound: "N#CC(=Nc1ccccc1N(C(=O)c1ccccc1)C(=O)c1ccccc1)c1ccccc1"
  TGI: "> 70.9 µM"
- Compound: "O=C(NCCCN(CCCCN(CCCNC(=O)C(F)(F)F)Cc1ccc2ccccc2c1)Cc1ccc2ccccc2c1)C(F)(F)F"
  TGI: "> 100 µM"
- Compound: "COc1c(O)c2c3c(c(C)cc(O)c3c1O)C(=O)C(O)(C(C)(C)C(C)=O)C2=O (stereo not given)"
  TGI: "> 100 µM"

// TGI lookup, key: O=C(/C=C/c1ccccc1)c1ccccc1
> 10 µM

----------
# Tested on: ACHN renal
# Protocol summary: NCI tumour cell line growth inhibition, 48 h; in the data active = GI50 below about 0.43 µM; inactive = the rest
Outcome (select one): active, inactive

- Substance smiles: "COc1cc(/C=C\\c2cc(OC)c(OC)c(OC)c2)cc(N/C=C\\C(=O)c2c[nH]c3ccccc23)c1OC"
  Assigned category: "inactive"
- Substance smiles: "C=CC(=O)N1CN(C(=O)C=C)CN(C(=O)C=C)C1"
  Assigned category: "inactive"
- Substance smiles: "CCN(CC)CCCCCCNc1cccc2cc(Br)cnc12"
  Assigned category: "inactive"

Which outcome did this test record for the compound O=C(/C(=C\c1c(-c2ccccc2)[nH]c2ccccc12)S(=O)(=O)c1ccccc1)c1ccccc1 ?
inactive

Entry to check: Cc1cc(N/N=C/c2ccccn2)nc2ccccc12
active

And then C#CCOc1cccc(Nc2ncnc3c(NC(=O)C=C)cccc23)c1 , what is it?
inactive

----------
# System: UACC-257 melanoma
# Protocol summary: NCI tumour cell line growth inhibition, 48 h
Readout: GI50

Solved cases (5 shown):
- Molecule: "COc1ccc(-c2cnnn2-c2nonc2-n2cccc2)cc1"
  GI50: "373 nM"
- Molecule: "CC1(C)CN=C(NN=C(/C=C/c2ccc(C(F)(F)F)cc2)/C=C/c2ccc(C(F)(F)F)cc2)NC1"
  GI50: "1560 nM"
- Molecule: "O=C1Nc2ccccc2/C1=C1\\CCc2cc(O)ccc21"
  GI50: "9470 nM"
- Molecule: "CC(C)[C@H](O)C(=O)N[C@@H](C)C(=O)N[C@@H]1C(=O)N(C)CCc2ccccc21"
  GI50: "> 100000 nM"
- Molecule: "COc1cc2c(Nc3cc(Cl)c(OC)c(Cl)c3)c(C#N)cnc2cc1OCCCN1CCN(C)CC1"
  GI50: "1670 nM"

GET /values?readout=GI50&item= Nc1cc2c(cc1Br)[nH]c(=O)c1ccccc12
4130 nM

Try Nc1ccccc1O.O.O=C(O)C1[O][Sb][O]C1C(=O)O (stereo not given) next.
14100 nM

Another molecule to look at: Cc1cn(-c2cc(C(=O)Nc3cccc(-n4ccc5c(NC(=O)c6ccccc6)nccc54)c3)cc(C(F)(F)F)c2)cn1
510 nM

Next molecule: Cc1cc(N/N=C/c2ccccn2)nc2ccccc12
395 nM

Could you do the same for O=C(Nc1cc(Nc2ncccc2-c2ncnc3nc[nH]c23)ccc1F)c1cc(C(F)(F)F)cc(C(F)(F)F)c1 , please?
474 nM

----------
# Tested on: SK-MEL-5 melanoma
# Protocol summary: NCI tumour cell line growth inhibition, 48 h; in the data active means GI50 below about 0.43 µM; inactive means the rest
Your answer must be one of the following: Y = active, N = inactive

- Substance smiles: "c1ccc2c(c1)[nH]c1c2cc[n+]2cc3c(cc12)CCCC3"
  Assigned category: "N"

Look up the recorded call for c1coc(-c2c3ccc(=[N+]4CCCCC4)cc-3oc3cc(N4CCCCC4)ccc23)c1 in this test.
Y

Would you kindly repeat that for O=C(Nc1cc(Nc2ncccc2-c2ncnc3nc[nH]c23)ccc1F)c1cc(C(F)(F)F)cc(C(F)(F)F)c1 ?
N

# iterate: O=C(/C(=C\c1c(-c2ccccc2)[nH]c2ccccc12)S(=O)(=O)c1ccccc1)c1ccccc1
N

What do we get for CCCC/C(=C\C1=C(C)C(=O)C(OC)=C(OC)C1=O)C(=O)O ?
N

// same read-out, input: COc1cc2c(Nc3cc(Cl)c(OC)c(Cl)c3)c(C#N)cnc2cc1OCCCN1CCN(C)CC1
N

----------
# Tested on: OVCAR-5 ovarian
# Protocol summary: NCI tumour cell line growth inhibition, 48 h
Readout: TGI

- Molecule: "Cc1ccc(CC[P+](=O)CCc2ccc(C)nc2)cn1"
  TGI: "> 100 µM"
- Molecule: "Cc1cc(N/N=C/c2ccccn2)nc2ccccc12"
  TGI: "18.5 µM"
- Molecule: "CC1(C)C2CC(=O)C1(C)C(O)C2Br (stereo not given)"
  TGI: "> 100 µM"
- Molecule: "COc1ccc(-c2nn(-c3cccc(Cl)c3)cc2-c2cc(-c3ccccc3)[nH]c(=O)c2C#N)cc1"
  TGI: "> 50 µM"
- Molecule: "C[C@@H]1S[C@H](c2ccccc2F)N2Cc3ccccc3N=C12"
  TGI: "> 100 µM"
- Molecule: "COC(c1ccc(C(C)(C)C)cc1)(c1ccc(C(C)(C)C)cc1)c1ccc(C(C)(C)C)cc1"
  TGI: "> 100 µM"
- Molecule: "O=C(O)C(SC1=NNC2(C(=O)N1)c1ccccc1-c1ccccc12)SC1=NNC2(C(=O)N1)c1ccccc1-c1ccccc12"
  TGI: "> 10 µM"
- Molecule: "CC(=O)O[C@H]1C(=O)[C@@]2(C)[C@H]([C@H](OC(=O)c3ccc(F)cc3)[C@]3(O)C[C@H](OC(=O)[C@H](O)[C@@H](NC(=O)c4ccccc4)c4ccccc4)C(C)=C1C3(C)C)[C@]1(OC(C)=O)CO[C@@H]1C[C@@H]2O"
  TGI: "> 11.5 µM"

May I ask what TGI has been recorded for CC(C)(C)OC(=O)NCCC(N)=S ?
> 100 µM

Same for CC1CN=C(N(C(=O)Nc2ccc(F)c(Cl)c2)c2ccccc2)S1 (stereo not given)
76.3 µM

Entry to check: Nc1nc(N)c(N=O)c(Nc2ccc(Br)cc2)n1
> 100 µM

Then this molecule: CCC1CN2CCc3cc(OC)c(OC)cc3C2CC1CC1c2cc(OC)c(OC)cc2CCN1C(=O)C1CCCN1 (stereo not given)
> 100 µM

Follow-up item: CNc1ncnc2c1cnn2COCC(O)CO (stereo not given)
> 100 µM

Now consider CO[C@H]1Nc2c(ccc(C)c2O)C(=O)N2C=C(/C=C/C(N)=O)C[C@@H]12 and answer again.
5.45 µM

----------
# Test system: UACC-62 melanoma
# Protocol summary: NCI tumour cell line growth inhibition, 48 h
# reported TGI; entries follow

For orientation, consider the following solved cases.
- Compound: "COc1cc2c(Nc3cc(Cl)c(OC)c(Cl)c3)c(C#N)cnc2cc1OCCCN1CCN(C)CC1"
  TGI: "7.9 µM"
- Compound: "COC(=O)C(=O)C(C(C)=O)C(=O)NCc1ccc(OC)c(OC)c1 (stereo not drawn)"
  TGI: "> 100 µM"
- Compound: "CCC(C)(O)c1cnc(CC(C)C)c(=O)n1O (stereo not drawn)"
  TGI: "> 100 µM"
- Compound: "O=C(NCCCN(CCCCN(CCCNC(=O)C(F)(F)F)Cc1ccc2ccccc2c1)Cc1ccc2ccccc2c1)C(F)(F)F"
  TGI: "5.41 µM"
- Compound: "CC(C)=CCC/C(C)=C/COC(C)(C)C1=CCC(C)CC1 (stereo not drawn) (tested in a mixture with another compound)"
  TGI: "> 100 µM"

Given the entry Cc1cc(N/N=C/c2ccccn2)nc2ccccc12 , what TGI was observed with UACC-62 melanoma?
3.36 µM

Entry to check: COC(=O)CN1c2nc(C#N)c(C#N)nc2N(CC(=O)OC)c2nc(C#N)c(C#N)nc21
42.4 µM

Please do the same for COc1cc2c(cc1O)CCN[C@]21CS[C@@H]2c3c(OC(C)=O)c(C)c4c(c3[C@H](COC1=O)N1[C@@H]2[C@H]2c3c(cc(C)c(OC)c3O)C[C@@H]([C@@H]1O)N2C)OCO4 as well.
0.00403 µM

Also O=C1NCCS(=O)(=O)N[C@@H](CC2=CC=CCC2)C(=O)N2CCCC12 (stereo partly drawn) ?
> 100 µM

Try this compound next: COC(=O)c1c2c(cc3c1CCC3)CCC2
> 100 µM

Another compound to check: COc1c(C)n(CCO)ccc1=O
> 100 µM

Next: CCCC/C(=C\C1=C(C)C(=O)C(OC)=C(OC)C1=O)C(=O)O
> 100 µM

# repeat for O=C(CC(=O)C1CCOC1=O)C(=O)Nc1cccc(Cl)c1 (stereo not drawn)
> 100 µM

----------
# Test system: SK-MEL-28 melanoma
# Protocol summary: NCI tumour cell line growth inhibition, 48 h; in the data active means GI50 below about 0.43 µM; inactive means the rest
API: response.call in active, inactive

Some solved cases for reference:
- Compound: "CC(C)(C)[Si](C)(C)OC1[C@@H](CNC(=O)NC(=O)CCl)O[C@@H](n2cnc3c(N)ncnc32)[C@H]1O[Si](C)(C)C(C)(C)C (stereo not given in full)"
  Assigned category: "inactive"
- Compound: "CCN(CC)CCCCCCNc1cccc2cc(Br)cnc12"
  Assigned category: "inactive"
- Compound: "Cc1cc(Nc2nc(-c3cn(-c4ccc(Cl)cc4)nn3)nc3ccccc23)n[nH]1"
  Assigned category: "inactive"

What classification did Nc1cc2c(cc1Br)[nH]c(=O)c1ccccc12 end up with in this test?
inactive

Item: c1coc(-c2c3ccc(=[N+]4CCCCC4)cc-3oc3cc(N4CCCCC4)ccc23)c1
active

Do the same for O=C1CCCN1c1ccccc1I(=O)=O please
inactive

Record: C#CCOc1cccc(Nc2ncnc3c(NC(=O)C=C)cccc23)c1
inactive

Please do the same for COc1ccc(/C(C)=C(\c2ccc(OCCN3CCCCCC3)cc2)c2ccc(OC(=O)C3CCCCC3)cc2)cc1 as well.
inactive

C=CC(=O)N1CN(C(=O)C=C)CN(C(=O)C=C)C1 , same question.
inactive

Next entry: O=C(c1ccco1)c1c(C(F)(F)F)n([O-])c2ccc(C(F)(F)F)cc2[n+]1=O
inactive
